The following compounds are listed with their measured composite z-score values.
# System: Human papillomavirus type 1a E7 protein (residues 1-88)
# ASSAY_REMARKS: HPV1a E7 small-molecule binders, primary screen, biochemical, small-molecule microarray, residues 1-88, 635 nm (AID 1129)
# EXPERIMENTAL_SETUP: small-molecule microarray binding, fluorescence 635 nm; higher = more signal
METRIC_NAME: composite z-score

CC(C)C(CO)N1C(=O)[C@@H]2C3C(=O)OCCC/C=C\[C@H]3OC23C=CCN(Cn2nnc4ccccc42)C(=O)[C@@H]13 (some centres not stated) : -0.233
[N-]=[N+]=Nc1ccccc1C[C@]1(C(=O)O)COC(c2ccc(OCCCO)cc2)=N1 : -0.914
COCCCNC(=O)[C@@]1(CCC(=O)OC(C)(C)C)N=C(c2ccc(OCCCO)cc2)O[C@H]1c1ccccc1N=[N+]=[N-] : 1.26
O=C(O)[C@@H]1[C@@H]2C(=O)N(c3ccccc3)C(=O)[C@@H]2C[C@@H]1Sc1ccccc1 : -0.683
C=CC[C@H](OC(=O)Nc1ccc(SC)cc1)c1ccc(O)c2ccccc12 : 1.23
CCCC[C@@H](O)C1=C(COC)C[C@H]2C(=O)N(Cc3ccccc3)C(=O)[C@H]2[C@H]1CO : 0.33
C=CCC(OC(C)=O)[C@@H]1[C@@H](N(Cc2cccc3ccccc23)C(=O)Cc2ccc(OC)cc2)c2cc(OCCCO)ccc2N1C(=O)c1ccc(-c2ccccc2)cc1 (some centres not stated) : -0.127
CC1CC/C=C\[C@H]2OC34C=CCN(Cc5ccccc5)C(=O)[C@H]3N(C(CO)C(C)C)C(=O)[C@@H]4C2C(=O)O1 (some centres not stated) : -1.03
CCCN1C(=O)[C@@]2(Cc3ccccc31)N=C(c1ccc(OCCCO)cc1)O[C@H]2c1ccccc1 : 1.17
CC(C)C(CO)N1C(=O)[C@@H]2C3C(=O)OCCC/C=C\[C@H]3OC23C=CCN(c2ccc4ccccc4c2)C(=O)[C@@H]13 (some centres not stated) : -0.696
Cc1ccc(NN2C(C(O)c3c(F)cccc3Cl)C=CC3C(=O)N(C4CCCCC4)C(=O)C32)cc1 (configuration not stated) : 1.2
C=C(C(=O)CC[C@H](OC(=O)c1ccccc1-c1ccccc1C(=O)O)c1cccc(OCCO)c1)C(C)C : -0.399
CC(C)N1CC=CC23O[C@@H]4C=CCCOC(=O)C4[C@H]2C(=O)N(CCCO)[C@@H]3C1=O (some centres not stated) : -0.0707
CCCCCC1=C2CNC(C)(C(=O)OC)C=C2C(C)C1=O (configuration not stated) : -0.575
[N-]=[N+]=Nc1ccccc1C[C@]1(C(=O)NCC(O)CO)COC(c2ccc(OCCCO)cc2)=N1 (some centres not stated) : 1.23
CCCC[C@@H](O)C1=C(COC)C[C@H]2C(=O)N(C)C(=O)[C@H]2[C@H]1CO : -0.165
CC1CC/C=C\[C@H]2OC34C=CCN(C(C)(C)C)C(=O)[C@H]3N(CCCCCO)C(=O)[C@@H]4C2C(=O)O1 (some centres not stated) : -1.07
O=C1O[C@@H](c2ccccc2)[C@@H](c2ccccc2)N2[C@@H](c3ccc(OCCO)cc3)[C@]3(C(=O)Nc4ccc(C#CC5=CCCCC5)cc43)[C@@H](C(=O)NC[C@H](O)c3ccccc3)[C@H]12 : 1.21
COc1ccc([Si](C)(C)[C@H]2[C@H](CC(=O)N(CCO)Cc3ccccc3)O[C@@]3(C(=O)N(C)c4c(Br)cc(C)cc43)[C@@H]2C)cc1 : 1.03
[N-]=[N+]=Nc1ccccc1C[C@@]1(C(=O)N2CCOCC2)N=C(c2ccc(OCCCO)cc2)O[C@@H]1c1ccccc1 : 1.19
CCCC=C(CCC)[C@@H](NS(=O)(=O)CC12CCC(CC1=O)C2(C)C)c1ccc(C(=O)OC)cc1 (some centres not stated) : 0.71
CCOC(=O)C1=C[C@@H](c2ccccc2)N(S(=O)(=O)c2ccc(C)cc2)[C@H]1c1ccc(OC)cc1 : 0.957
CC(CO)N1C(=O)[C@]2(C)C3C(=O)OCCC/C=C\[C@H]3OC23C=CCN(c2ccc(Cl)cc2)C(=O)[C@@H]13 (some centres not stated) : -0.48
CC(c1ccccc1)C(O)C1C=CC2C(=O)N(C)C(=O)C2N1Nc1ccccc1 (configuration not stated) : 1.24
CCC#CCN(Cc1ccccc1Br)[C@H](/C=C/C1CC1)[C@@H](O)Cc1ccccc1 : -0.499
CCCC[C@@H]1C[C@H]1[C@@H](NC(=O)c1cccs1)c1ccccc1C(F)(F)F : 1.2
CC(C)NC(=O)[C@@]1(C)c2ccccc2C(=O)N(Cc2ccc(OC(F)(F)F)cc2)[C@H]1c1ccc(CO)cc1 : -0.14
C=CC[C@@H](OC(=O)Nc1ccc(OC)cc1)c1ccc(O)c(F)c1 : -0.0596
C=CC[C@@]1(C(=O)NCCCOC)N=C(c2ccc(OCCCO)cc2)O[C@@H]1c1ccccc1N=[N+]=[N-] : 1.21
COc1cc(NN2C(C(O)c3ccc(N(C)C)cc3)C=CC3C(=O)N(c4ccccc4)C(=O)C32)cc(OC)c1OC (configuration not stated) : 1.03
COC(=O)[C@@]1(Cc2ccc(OC)cc2)[C@H]2c3cc(C(=O)N4CCCC4)n(CCO)c3C[C@H]2CN1C(=O)c1ccccc1 : 1.18
N[C@@H](Cc1ccccc1)C(=O)NCc1cn(Cc2ccccc2)nn1 : -0.096
